tested on: VRE Enterococcus faecium
assay_endpoint: MIC VRE ATCC 700221
# answer = value followed by unit

IN: Given C=C1NC(=O)[C@H](Cc2c[nH]c3ccccc23)NC(=O)[C@H](NC(=O)[C@H](CCCCN)NC(=O)CN)CSC[C@@H](C(=O)N[C@H]2C(=O)N3CCC[C@H]3C(=O)NCC(=O)N[C@H](C(=O)N[C@@H](C)C(=O)N[C@@H](CC(N)=O)C(=O)NC(=CC)C(=O)NCC(=O)N[C@@H]3CSC[C@@H]4NC(=O)[C@H](Cc5ccc(O)cc5)NC(=O)[C@@H](CS/C=C\NC4=O)NC(=O)[C@H](CC(N)=O)NC(=O)[C@H](Cc4ccccc4)NC3=O)CS[C@H]2C)NC(=O)[C@H](CC(C)C)NC1=O [F1G R13N] , respond with its MIC VRE ATCC 700221.
OUT: 32 µg/mL

---

tested on: Heliobacter pylori
// reported MIC to H. Pylori without EDTA for each item listed
Value expressed in µg/mL; do not type the unit.

IN: Provide measured MIC to H. Pylori without EDTA on Heliobacter pylori for C=C1NC(=O)[C@H](Cc2c[nH]c3ccccc23)NC(=O)[C@H](NC(=O)[C@H](CCCCN)NC(=O)[C@@H](N)CC(C)C)CSC[C@@H](C(=O)N[C@H]2C(=O)N3CCC[C@H]3C(=O)NCC(=O)N[C@H](C(=O)N[C@@H](C)C(=O)N[C@@H](C)C(=O)NC(=CC)C(=O)NCC(=O)N[C@@H]3CSC[C@@H]4NC(=O)[C@H](Cc5ccc(O)cc5)NC(=O)[C@@H](CS/C=C\NC4=O)NC(=O)[C@H](CC(N)=O)NC(=O)[C@H](Cc4ccccc4)NC3=O)CS[C@H]2C)NC(=O)[C@H](CC(C)C)NC1=O [F1L R13A] please.
OUT: 8

IN: Provide measured MIC to H. Pylori without EDTA on Heliobacter pylori for C=C1NC(=O)[C@H](Cc2c[nH]c3ccccc23)NC(=O)[C@H](NC(=O)[C@H](CCCCN)NC(=O)[C@@H](N)[C@@H](C)CC)CSC[C@@H](C(=O)N[C@H]2C(=O)N3CCC[C@H]3C(=O)NCC(=O)N[C@H](C(=O)N[C@@H](C)C(=O)N[C@@H](CC(=O)O)C(=O)NC(=CC)C(=O)NCC(=O)N[C@@H]3CSC[C@@H]4NC(=O)[C@H](Cc5ccc(O)cc5)NC(=O)[C@@H](CS/C=C\NC4=O)NC(=O)[C@H](CC(N)=O)NC(=O)[C@H](Cc4ccccc4)NC3=O)CS[C@H]2C)NC(=O)[C@H](CC(C)C)NC1=O [F1I R13D] please.
OUT: 8

---

assay: in vitro; conditions: simulated gastric fluid without enzyme, pH 1.4
Where a SMILES comes first, the peptide text is derived from it.
assay_endpoint: half-life at 300 μg/ml

IN: Given CSCC[C@H](N)C(=O)N[C@@H](CCCNC(=N)N)C(=O)N[C@@H](Cc1ccccc1)C(=O)N[C@@H](C)C(=O)O [Positive Control, NH2-Met-Arg-Phe-Ala-OH, reference compound] (H-MRFA-OH) , respond with its half-life at 300 μg/ml.
OUT: > 24 h

---

// reported Percent Survival at Day-22 for each item listed
tested on: Clostridium difficile UNT103-1; test: Non-cannulated Syrian hamster C. difficile infection model, oral gavage; type: in vivo, Golden Syrian hamsters; conditions: oral gavage TID Days 2-6; vancomycin 20 mg/kg once a day
Value expressed in %; do not type the unit.

compound | Percent Survival at Day-22 [%]
C=C1NC(=O)[C@H](Cc2c[nH]c3ccccc23)NC(=O)[C@H](NC(=O)[C@H](CCCCN)NC(=O)[C@@H](N)[C@@H](C)CC)CSC[C@@H](C(=O)N[C@H]2C(=O)N3CCC[C@H]3C(=O)NCC(=O)N[C@H](C(=O)N[C@@H](C)C(=O)N[C@@H](CC(N)=O)C(=O)NC(=CC)C(=O)NCC(=O)N[C@@H]3CSC[C@@H]4NC(=O)[C@H](Cc5ccc(O)cc5)NC(=O)[C@@H](CS/C=C\NC4=O)NC(=O)[C@H](CC(N)=O)NC(=O)[C@H](Cc4ccccc4)NC3=O)CS[C@H]2C)NC(=O)[C@H](CC(C)C)NC1=O [F1I R13N] | 66

Now turn to the next compound.
IN: Given C=C1NC(=O)[C@H](Cc2c[nH]c3ccccc23)NC(=O)[C@H](NC(=O)[C@H](CCCCN)NC(=O)[C@@H](N)C(C)C)CSC[C@@H](C(=O)N[C@H]2C(=O)N3CCC[C@H]3C(=O)NCC(=O)N[C@H](C(=O)N[C@@H](C)C(=O)N[C@@H](CC(N)=O)C(=O)N/C(=C\C)C(=O)NCC(=O)N[C@@H]3CSC[C@@H]4NC(=O)[C@H](Cc5ccc(O)cc5)NC(=O)[C@@H](CS/C=C\NC4=O)NC(=O)[C@H](CC(N)=O)NC(=O)[C@H](Cc4ccccc4)NC3=O)CS[C@H]2C)NC(=O)[C@H](CC(C)C)NC1=O [F1V R13N] , respond with its Percent Survival at Day-22.
OUT: 100
